Reference source: PubChem BioAssay AID651642

# Tested on: HL-1
# METHOD_DESCRIPTION: cardiomyocyte survival under oxidative or metabolic stress – cell-based, panel, H9c2 and HL-1, H2O2, 2-deoxyglucose, ATP luminescence, SAR follow-up (AID 651642);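 note: plate controls were H2O2 plus DMSO for no effect and cells kept without H2O2 for full effect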
# MEASUREMENT_CONDITIONS: H9c2/HL-1 cardiomyocyte H2O2 oxidative damage, mean of runs; with H2O2, at 0.154 µM
Active and inactive are the calls of the source.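 Rule for the calls: active = average half-effect concentration of 10 µM or less in every one of the four cell panels; inactive = the rest.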
activity by entry:

MOLECULE	activity
COc1cc(-c2cc(C(=O)NCC(=O)Nc3ccc(C(C)=O)cc3)c3cc(F)ccc3n2)cc(OC)c1OC	1.92% (active)
COc1cc(-c2cc(C(=O)NCC(=O)Nc3ccc(C(C)=O)cc3)c3ccccc3n2)cc(OC)c1OC	0.684% (inactive)
CCOC(=O)c1cccc(NC(=O)c2cc(-c3cc(OC)c(OC)c(OC)c3)nc3c(Cl)cccc23)c1	5.38% (inactive)
COc1cc(-c2cc(C(=O)Nc3cccc(C(=O)Nc4ccccc4)c3)c3ccccc3n2)cc(OC)c1OC	-3.29% (inactive)
COc1ccc2c(c1OC)C(=O)N1c3ccccc3C(=O)N(Cc3cccc(Cl)c3Cl)C21 (stereo unspecified)	4.4% (inactive)
COc1cc(-c2cc(C(=O)NCC(=O)Nc3cccc(C(C)=O)c3)c3ccccc3n2)cc(OC)c1OC	-2.38% (active)
COc1ccc2nc(-c3cc(OC)c(OC)c(OC)c3)cc(C(=O)NCC(=O)Nc3ccc(C(C)=O)cc3)c2c1	-1.7% (active)
CCOC(=O)c1cccc(NC(=O)c2cc(-c3cc(OC)c(OC)c(OC)c3)nc3ccc(C)cc23)c1	4.25% (inactive)
COc1cccc(CNC(=O)CNC(=O)c2cc(-c3cc(OC)c(OC)c(OC)c3)nc3ccccc23)c1	-2.04% (inactive)
CCOC(=O)c1cccc(NC(=O)CNC(=O)c2cc(-c3cc(OC)c(OC)c(OC)c3)nc3ccc(C)cc23)c1	-1.48% (active)
COc1ccc2c(c1OC)C(=O)N1c3ccccc3C(=O)N(Cc3ccccc3Br)C21 (stereo unspecified)	-0.68% (inactive)
COc1ccc(NC(=O)CNC(=O)c2cc(-c3cc(OC)c(OC)c(OC)c3)nc3ccccc23)cc1	3.9% (active)
COc1cc(-c2cc(C(=O)NCC(=O)O)c3ccccc3n2)cc(OC)c1OC	-0.263% (inactive)
CCOC(=O)c1cccc(NC(=O)CNC(=O)c2cc(-c3cc(OC)c(OC)c(OC)c3)nc3ccc(OC)cc23)c1	-3.33% (active)
COc1cc(-c2cc(C(=O)Nc3cccc(C(C)=O)c3)c3ccc(Cl)cc3n2)cc(OC)c1OC	-6.29% (active)
COc1cc(-c2cc(C(=O)Nc3cccc(C(=O)N(C)C)c3)c3ccccc3n2)cc(OC)c1OC	0.987% (active)
CCOC(=O)c1cccc(NC(=O)CNC(=O)c2cc(-c3cc(OC)c(OC)c(OC)c3)nc3ccc(Br)cc23)c1	-0.604% (active)
CCOC(=O)c1cccc(NC(=O)c2cc(-c3cc(OC)c(OC)c(OC)c3)nc3ccc(OC)cc23)c1	8.27% (inactive)
COc1ccc2c(c1OC)C(=O)N1c3ccccc3C(=O)N(Cc3cccc(C)c3)C21 (stereo unspecified)	-2.16% (inactive)
COc1ccc2c(c1OC)C(=O)N1c3ccccc3C(=O)N(Cc3ccccc3)C21 (stereo unspecified)	-5.45% (inactive)
COc1cc(-c2cc(C(=O)NCC(=O)Nc3cccc(C(C)=O)c3)c3cc(Br)ccc3n2)cc(OC)c1OC	-0.566% (active)
COc1cc(-c2cc(C(=O)NCC(=O)Nc3cccc(C(C)=O)c3)c3cccc(Cl)c3n2)cc(OC)c1OC	8.31% (inactive)
COc1ccc2c(c1OC)C(=O)N1c3ccccc3C(=O)N(Cc3ccccc3Cl)C21 (stereo unspecified)	2.73% (inactive)
COc1cc(-c2cc(C(=O)Nc3cccc(C(C)=O)c3)c3ccccc3n2)cc(OC)c1OC	-1.02% (active)
CCOC(=O)c1cccc(NC(=O)c2cc(-c3cc(OC)c(OC)c(OC)c3)nc3ccc(Br)cc23)c1	0.456% (inactive)
CCOC(=O)c1cccc(NC(=O)c2cc(-c3cc(OC)c(OC)c(OC)c3)nc3cc(Cl)ccc23)c1	1.44% (inactive)
COC(=O)CNC(=O)c1cc(-c2cc(OC)c(OC)c(OC)c2)nc2ccccc12	-2.8% (inactive)
COc1ccc2c(c1OC)C(=O)N1c3ccccc3C(=O)N(Cc3ccccc3F)C21 (stereo unspecified)	4.24% (inactive)
COc1ccc2c(c1OC)C(=O)N1c3ccccc3C(=O)N(Cc3ccccc3C)C21 (stereo unspecified)	-0.339% (inactive)
COc1cc(-c2cc(C(=O)Nc3cccc(C(C)=O)c3)c3cccc(Cl)c3n2)cc(OC)c1OC	-3.22% (inactive)
COc1cc(-c2cc(C(=O)Nc3cccc(C(=O)NC4CC4)c3)c3ccccc3n2)cc(OC)c1OC	-0.15% (active)
CCOC(=O)c1ccccc1NC(=O)c1cc(-c2cc(OC)c(OC)c(OC)c2)nc2ccccc12	-1.41% (inactive)
CCOC(=O)c1ccc(NC(=O)c2cc(-c3cc(OC)c(OC)c(OC)c3)nc3ccccc23)cc1	0.646% (inactive)
COc1cc(-c2cc(C(=O)Nc3cccc(C(C)=O)c3)c3cc(F)ccc3n2)cc(OC)c1OC	-2.5% (active)
CCOC(=O)c1cccc(NC(=O)c2cc(-c3cc(OC)c(OC)c(OC)c3)nc3ccccc23)c1	0.2% (active)
COc1ccc2c(c1OC)C(=O)N1c3ccccc3C(=O)N(Cc3ccc(F)cc3)C21 (stereo unspecified)	-2.95% (inactive)
